Attribution: the CheMixHub viscosity set

Collected viscosity values appear next to each entry.
- EXPERIMENT: xn = mol fraction of the nth substance listed
- CONDITIONS USED: 308.15 K; 101 kPa; x2 = 0.45
The reply should be a number in mPa·s, with the unit left off.

Study these solved cases before continuing.
## Task State the recorded viscosity for this entry: CCCCCCCCO + CCO
## Result 2.961

## Task # query: viscosity of entry CCCCCCCCO + CCCO
## Result 3.353

## Task Value lookup for viscosity; key = CCCCCCCCO + CO
## Result 2.661

Now turn to the next compound.
## Task Given the entry CCCCCCCCO + CCCCO , report its measured viscosity.
## Result 3.608

* * *

Catalogue of viscosity values
- EXPERIMENT: xn = mol fraction of the nth substance listed
- CONDITIONS USED: 318.15 K; 101 kPa; x2 = 0.9
± gives the uncertainty stated by the source.
Units required after the number.

Worked cases, answers included:
## Task Would you kindly share the measured viscosity for CCCCCCCCO + CCCO ?
## Result 1.445 ± 0.013 mPa·s

## Task For CCCCCCCCO + CCO , what is its reported viscosity?
## Result 0.9926 ± 0.0088 mPa·s

## Task Fill blank: measured viscosity of the molecule CCCCCCCCO + CCCCO is ____.
## Result 1.744 ± 0.016 mPa·s

Pending molecule:
## Task # viscosity lookup, item CCCCCCCCO + CO
## Result 0.6532 ± 0.0059 mPa·s

* * *

# viscosity per entry
- EXPERIMENT: xn = mol fraction of the nth substance listed
- CONDITIONS USED: 298.15 K; 101 kPa; x2 = 0.55
Give the number; mPa·s is assumed, so skip it.

Reference set, count: 3
## Task Can you share its viscosity? I mean this compound: CCCCCCCCO + CO
## Result 2.727

## Task For the compound CCCCCCCCO + CCO , what viscosity is on record?
## Result 3.245

## Task Form field: reported viscosity of CCCCCCCCO + CCCO
## Result 4.021

Let us examine a further case.
## Task Which value of viscosity has been reported for CCCCCCCCO + CCCCO in the records?
## Result 4.38

* * *

- EXPERIMENT: xn = mol fraction of the nth substance listed
- CONDITIONS USED: 308.15 K; 101 kPa; x2 = 0.6
READOUT NAME: viscosity (mPa·s)
Hi! Could you send only the number? It should be in mPa·s, unit omitted.

## Task # lookup: viscosity of CCCCCCCCO + CCCCO
## Result 3.113

***
## Task Look up viscosity: CCCCCCCCO + CCO
## Result 2.3

## Task // lookup viscosity for CCCCCCCCO + CO
## Result 1.933

## Task For CCCCCCCCO + CCCO , what is its reported viscosity?
## Result 2.869

* * *

- EXPERIMENT: xn = mol fraction of the nth substance listed
- CONDITIONS USED: 308.15 K; 101 kPa; x2 = 0.2
Here, each record is paired with measured viscosity data.
Only the number, expressed in mPa·s, is required.

The cases that follow already have their viscosity on record.
## Task Entry CCCCCCCCO + CO : reported viscosity = ?
## Result 4.035

## Task Give the measured viscosity of CCCCCCCCO + CCCO .
## Result 4.183

## Task # lookup: viscosity of CCCCCCCCO + CCO
## Result 4.204

Next compound, please.
## Task Consider the compound CCCCCCCCO + CCCCO and give its measured viscosity.
## Result 4.492
